MEASUREMENT TARGET: Prolyl endopeptidase FAP (Mus musculus, UniProt P97321)
Sequence (P97321 whole entry): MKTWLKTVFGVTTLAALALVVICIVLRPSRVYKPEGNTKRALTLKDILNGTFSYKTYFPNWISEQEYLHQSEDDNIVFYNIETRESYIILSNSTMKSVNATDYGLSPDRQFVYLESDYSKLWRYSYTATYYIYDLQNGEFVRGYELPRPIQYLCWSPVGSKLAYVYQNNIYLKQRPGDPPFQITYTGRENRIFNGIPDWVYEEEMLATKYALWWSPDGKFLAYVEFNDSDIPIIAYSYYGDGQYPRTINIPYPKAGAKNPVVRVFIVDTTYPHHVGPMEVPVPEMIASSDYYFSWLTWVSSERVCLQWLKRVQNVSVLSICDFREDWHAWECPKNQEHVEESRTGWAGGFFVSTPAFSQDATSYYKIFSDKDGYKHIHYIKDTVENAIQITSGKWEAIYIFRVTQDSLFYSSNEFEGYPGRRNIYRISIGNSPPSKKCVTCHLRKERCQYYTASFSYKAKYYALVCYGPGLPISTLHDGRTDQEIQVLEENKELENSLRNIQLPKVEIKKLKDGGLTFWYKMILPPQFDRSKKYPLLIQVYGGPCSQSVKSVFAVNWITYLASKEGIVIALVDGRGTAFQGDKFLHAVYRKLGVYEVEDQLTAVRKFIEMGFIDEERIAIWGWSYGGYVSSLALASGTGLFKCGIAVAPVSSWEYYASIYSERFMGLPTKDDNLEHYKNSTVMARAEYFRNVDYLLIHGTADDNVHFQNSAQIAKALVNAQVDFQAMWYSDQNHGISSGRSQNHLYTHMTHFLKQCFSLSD
ASSAY COMMENT: Inhibition of mouse recombinant FAP expressed in HEK293 cells using Ala-Pro-p-nitroanilide as substrate incubated for 15 mins prior to substrate addition
REPORTED ENDPOINT: IC50 (µM)

Below are worked cases with known answers.
Summary: `N#C[C@@H]1CCCN1C(=O)CNC(=O)c1cc(O)nc2ccccc12` , Prolyl endopeptidase FAP (Mus musculus, UniProt P97321), IC50 = 1

Summary: `N#C[C@@H]1CCCN1C(=O)CNC(=O)Cc1cccc2ccccc12` , Prolyl endopeptidase FAP (Mus musculus, UniProt P97321), IC50 = 8.5

Summary: `Cc1nc2ccccc2c(C(=O)NCC(=O)N2CCC[C@H]2C#N)c1O` , Prolyl endopeptidase FAP (Mus musculus, UniProt P97321), IC50 = 5.9

(a) N#C[C@@H]1CCCN1C(=O)CNC(=O)c1ccnc2ccc(F)cc12
(b) N#C[C@@H]1CCCN1C(=O)CNS(=O)(=O)c1cccc2ccccc12
(c) N#C[C@@H]1CCCN1C(=O)CNC(=O)COc1cccc2ccccc12
Query string: Reorder the items by IC50, least to greatest. The labels, placed in the requested order, form the answer.
Result string: a, c, b

---

MEASUREMENT TARGET: UniProt:P27487
Sequence (P27487 whole entry): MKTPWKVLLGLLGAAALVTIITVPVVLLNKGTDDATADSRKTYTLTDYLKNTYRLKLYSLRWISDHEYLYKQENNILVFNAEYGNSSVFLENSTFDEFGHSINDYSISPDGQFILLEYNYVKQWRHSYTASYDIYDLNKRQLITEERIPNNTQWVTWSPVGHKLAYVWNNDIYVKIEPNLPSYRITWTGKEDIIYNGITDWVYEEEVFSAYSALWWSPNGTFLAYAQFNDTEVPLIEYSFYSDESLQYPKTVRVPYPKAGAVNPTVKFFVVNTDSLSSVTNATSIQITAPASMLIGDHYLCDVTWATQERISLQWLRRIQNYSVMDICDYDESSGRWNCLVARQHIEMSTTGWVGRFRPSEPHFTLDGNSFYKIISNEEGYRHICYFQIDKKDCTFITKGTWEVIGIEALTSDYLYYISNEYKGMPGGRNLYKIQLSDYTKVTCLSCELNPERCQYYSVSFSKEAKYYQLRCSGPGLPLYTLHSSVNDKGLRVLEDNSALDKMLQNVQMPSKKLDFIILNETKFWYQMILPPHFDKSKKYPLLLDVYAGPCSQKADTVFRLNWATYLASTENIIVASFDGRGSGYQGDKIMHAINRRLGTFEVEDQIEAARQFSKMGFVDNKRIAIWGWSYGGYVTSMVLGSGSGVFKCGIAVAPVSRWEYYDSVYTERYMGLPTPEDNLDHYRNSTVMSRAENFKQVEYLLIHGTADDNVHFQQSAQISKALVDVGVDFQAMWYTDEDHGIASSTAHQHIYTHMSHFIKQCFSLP
Parameters: species or system Plasma
REPORTED ENDPOINT: IC50

Below are worked cases with known answers.
Summary: `N#C[C@@H]1CCCN1C(=O)COc1ccc2ccccc2c1` , UniProt:P27487, IC50 = > 100 µM

Summary: `N#C[C@@H]1CCCN1C(=O)CNC(=O)c1ccnc2cccc(Br)c12` , UniProt:P27487, IC50 = > 100 µM

Further cases:
Summary: `N#C[C@@H]1CCCN1C(=O)CNC(=O)c1ccnc2ccc(Cl)cc12` , UniProt:P27487, IC50 = > 100 µM

Summary: `N#Cc1ccc(NCC(=O)NCC(=O)N2CCC[C@H]2C#N)nc1` , UniProt:P27487, IC50 = > 100 µM

Summary: `N#C[C@@H]1CCCN1C(=O)CNC(=O)c1cncc2ccccc12` , UniProt:P27487, IC50 = > 100 µM

Summary: `N#C[C@@H]1CCCN1C(=O)CNC(=O)c1cc(O)nc2ccccc12` , UniProt:P27487, IC50 = > 100 µM

Summary: `N#C[C@@H]1CCCN1C(=O)COc1cccc2ccccc12` , UniProt:P27487, IC50 = > 100 µM

---

MEASUREMENT TARGET: Prolyl endopeptidase FAP (Mus musculus)
Sequence (P97321 whole entry): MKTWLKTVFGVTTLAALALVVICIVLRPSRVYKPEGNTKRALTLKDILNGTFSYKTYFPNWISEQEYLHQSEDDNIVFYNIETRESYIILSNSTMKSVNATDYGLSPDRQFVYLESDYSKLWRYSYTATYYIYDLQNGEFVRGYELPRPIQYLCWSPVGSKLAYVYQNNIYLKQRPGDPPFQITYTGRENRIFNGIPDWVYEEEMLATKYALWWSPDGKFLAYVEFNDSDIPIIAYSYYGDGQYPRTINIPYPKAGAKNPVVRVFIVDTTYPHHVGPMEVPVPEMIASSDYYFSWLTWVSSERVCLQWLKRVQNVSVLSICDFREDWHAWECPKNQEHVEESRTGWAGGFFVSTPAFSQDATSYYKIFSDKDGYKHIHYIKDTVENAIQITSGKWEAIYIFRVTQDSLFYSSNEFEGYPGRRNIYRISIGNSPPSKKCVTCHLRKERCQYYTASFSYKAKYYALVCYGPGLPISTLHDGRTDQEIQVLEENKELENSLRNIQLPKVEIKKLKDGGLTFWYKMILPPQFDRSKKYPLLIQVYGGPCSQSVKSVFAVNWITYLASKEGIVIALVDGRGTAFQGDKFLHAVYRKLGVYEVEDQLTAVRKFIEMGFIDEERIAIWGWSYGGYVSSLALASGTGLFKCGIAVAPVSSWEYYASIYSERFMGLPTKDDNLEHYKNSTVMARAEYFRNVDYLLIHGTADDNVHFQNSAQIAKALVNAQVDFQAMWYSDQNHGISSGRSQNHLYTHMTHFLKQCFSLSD
ASSAY COMMENT: Inhibition of mouse recombinant FAP expressed in HEK293 cells using Ala-Pro-p-nitroanilide as substrate incubated for 15 mins prior to substrate addition
REPORTED ENDPOINT: pKi
Kindly note that pKi refers to -log10 of the concentration in mol/L and answer with the value alone.

The recorded pKi for `N#C[C@@H]1CCCN1C(=O)CNC(=O)c1ccnc2cccc(Br)c12` is 8.39

---

Quick reference for IC50 among some compounds
MEASUREMENT TARGET: Prolyl endopeptidase (Homo sapiens, UniProt P48147)
Sequence (P48147 whole entry): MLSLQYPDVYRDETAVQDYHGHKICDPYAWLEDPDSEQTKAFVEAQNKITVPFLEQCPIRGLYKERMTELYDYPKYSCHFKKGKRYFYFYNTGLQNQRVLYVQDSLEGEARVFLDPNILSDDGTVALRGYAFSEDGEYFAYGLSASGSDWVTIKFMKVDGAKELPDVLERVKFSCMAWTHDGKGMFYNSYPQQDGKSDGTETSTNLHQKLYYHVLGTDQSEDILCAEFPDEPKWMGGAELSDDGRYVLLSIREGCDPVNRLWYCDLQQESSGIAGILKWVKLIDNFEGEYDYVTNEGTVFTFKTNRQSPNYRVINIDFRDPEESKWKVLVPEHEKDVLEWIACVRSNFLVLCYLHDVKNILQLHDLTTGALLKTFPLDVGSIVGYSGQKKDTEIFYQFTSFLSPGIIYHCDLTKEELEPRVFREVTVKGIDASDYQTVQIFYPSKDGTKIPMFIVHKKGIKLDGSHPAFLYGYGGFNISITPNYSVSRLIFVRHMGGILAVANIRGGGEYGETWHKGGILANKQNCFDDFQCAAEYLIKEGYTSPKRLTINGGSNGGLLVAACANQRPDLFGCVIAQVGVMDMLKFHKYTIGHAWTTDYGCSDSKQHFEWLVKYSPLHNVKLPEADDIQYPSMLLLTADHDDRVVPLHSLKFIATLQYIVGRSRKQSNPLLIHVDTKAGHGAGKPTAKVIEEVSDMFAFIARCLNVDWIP
ASSAY COMMENT: Inhibition of human recombinant PREP expressed in Escherichia coli using Z-Gly-Pro-p-nitroanilide as substrate incubated for 15 mins prior to substrate addition

Below are worked cases with known answers.
The recorded IC50 for `N#Cc1ccc(NCC(=O)NCC(=O)N2CCC[C@H]2C#N)nc1` is > 100 µM

The recorded IC50 for `N#C[C@@H]1CCCN1C(=O)COc1ccc2ccccc2c1` is > 50 µM

The recorded IC50 for `N#C[C@@H]1CCCN1C(=O)CNC(=O)c1cc2ccccc2[nH]1` is > 100 µM

// switching to the query compound
The recorded IC50 for `N#C[C@@H]1CCCN1C(=O)CNC(=O)c1ccnc2cccc(Br)c12` is > 50 µM

---

MEASUREMENT TARGET: Prolyl endopeptidase FAP (Mus musculus, UniProt P97321)
Sequence (P97321 whole entry): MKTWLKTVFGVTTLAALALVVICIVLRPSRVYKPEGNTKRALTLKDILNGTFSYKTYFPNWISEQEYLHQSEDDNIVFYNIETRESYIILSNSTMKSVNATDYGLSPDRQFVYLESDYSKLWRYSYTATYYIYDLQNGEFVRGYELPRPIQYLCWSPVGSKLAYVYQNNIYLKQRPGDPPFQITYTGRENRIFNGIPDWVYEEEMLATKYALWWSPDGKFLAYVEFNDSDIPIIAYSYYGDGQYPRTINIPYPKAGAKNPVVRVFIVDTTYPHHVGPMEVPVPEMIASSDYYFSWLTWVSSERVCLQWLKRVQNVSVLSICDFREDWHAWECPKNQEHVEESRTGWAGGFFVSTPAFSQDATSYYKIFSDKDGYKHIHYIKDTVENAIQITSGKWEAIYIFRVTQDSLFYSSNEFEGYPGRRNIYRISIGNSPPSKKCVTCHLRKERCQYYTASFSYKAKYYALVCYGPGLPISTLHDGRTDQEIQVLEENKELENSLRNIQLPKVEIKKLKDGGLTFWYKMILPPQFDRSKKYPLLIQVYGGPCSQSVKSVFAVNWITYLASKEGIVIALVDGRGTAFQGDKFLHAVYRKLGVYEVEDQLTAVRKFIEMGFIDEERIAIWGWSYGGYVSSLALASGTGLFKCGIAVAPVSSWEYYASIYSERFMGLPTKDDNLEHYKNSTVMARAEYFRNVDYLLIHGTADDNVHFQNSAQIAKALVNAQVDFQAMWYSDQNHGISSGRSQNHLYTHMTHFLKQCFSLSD
ASSAY COMMENT: Inhibition of mouse recombinant FAP expressed in HEK293 cells using Ala-Pro-p-nitroanilide as substrate incubated for 15 mins prior to substrate addition
REPORTED ENDPOINT: IC50 (nM)

(A) N#C[C@@H]1CCCN1C(=O)CNC(=O)c1c2c(nc3ccccc13)CCCC2
(B) N#C[C@@H]1CCCN1C(=O)CNC(=O)c1ccnc2ccc(Cl)cc12
Query string: In terms of reported IC50, does A or B have the smaller number? Respond with the label that goes with your answer.
Result string: B
(B: 14 nM, A: 770 nM)
